# Test system: SK-MEL-2
# test-summary: Growth inhibition of human SK-MEL-2 cells at 10 uM incubated for 48 hrs by sulforhodamine B assay relative to control
# Assay type: functional
# details: SK-MEL-2, 48 h, read-out: GI
assay-endpoint: inhibition of growth at 10 µM (%)
Note: unit % is implicit; provide only the numeric part.

Task: Record lookup: for SK-MEL-2, what inhibition of growth at 10 µM belongs to C/C(=N\O)c1ccc(NC(=O)Cn2nc(-c3ccc(Cl)cc3)nc2N)cc1 ?
Result: 15.3

Task: Give the reported inhibition of growth at 10 µM for CC(=O)c1ccc(NC(=O)Cn2nc(-c3ccc(Cl)cc3)nc2N)cc1 (system: SK-MEL-2).
Result: 4.03

Task: SK-MEL-2 / inhibition of growth at 10 µM / c1ccc(-c2nc3sc(-c4ccccc4)cn3n2)cc1 : value?
Result: 5

Task: Test system SK-MEL-2; read-out inhibition of growth at 10 µM; what value for C/C(=N/O)c1ccc(NC(=O)Cn2nc(-c3ccccc3)nc2N)cc1 ?
Result: 5.32

Task: Form: Entry = COc1cc(-c2nc(N)n(CC(=O)Nc3ccc(/C(C)=N\O)cc3)n2)cc(OC)c1OC | System = SK-MEL-2 | inhibition of growth at 10 µM = ____
Result: 8

Task: State its inhibition of growth at 10 µM on SK-MEL-2: COc1ccc(-c2nc3sc(-c4ccccc4)cn3n2)cc1
Result: 40

Task: Quick check: inhibition of growth at 10 µM on SK-MEL-2, item COc1cc(-c2nc3sc(-c4ccccc4)cn3n2)cc(OC)c1OC ?
Result: 20

Task: Give SK-MEL-2 inhibition of growth at 10 µM for C/C(=N/O)c1ccc(NC(=O)Cn2nc(C(F)(F)F)nc2N)cc1
Result: 13.1

---

# System: SK-OV-3
# test-summary: Growth inhibition of human SKOV3 cells at 10 uM incubated for 48 hrs by sulforhodamine B assay relative to control
# Type: functional
# details: SK-OV-3, 48 h, read-out: GI
Please go through the items and note down their inhibition of growth at 10 µM.
Show the value, then the unit it is measured in.

Task: What measured inhibition of growth at 10 µM is associated with C/C(=N/O)c1ccc(NC(=O)Cn2nc(C(F)(F)F)nc2N)cc1 on SK-OV-3?
Result: 3.53%

Task: Give inhibition of growth at 10 µM (SK-OV-3) of the following compound: CC(=O)c1ccc(NC(=O)Cn2nc(-c3ccc(Cl)cc3)nc2N)cc1
Result: 22%

Task: Give inhibition of growth at 10 µM (SK-OV-3) of the following compound: COc1ccc(-c2nc3sc(-c4ccccc4)cn3n2)cc1
Result: 32%

Task: Request: inhibition of growth at 10 µM, test system SK-OV-3, entry C/C(=N/O)c1ccc(NC(=O)Cn2nc(-c3ccccc3)nc2N)cc1
Result: 15.2%

Task: # returns recorded inhibition of growth at 10 µM (system: SK-OV-3) for c1ccc(-c2nc3sc(-c4ccccc4)cn3n2)cc1
Result: 5%

Task: Find the measured inhibition of growth at 10 µM: item CC(=O)c1ccc(NC(=O)Cn2nc(C(F)(F)F)nc2N)cc1 , target or system SK-OV-3.
Result: 7.02%

---

# System: SR
# test-summary: Growth inhibition of human SR cells at 10 uM incubated for 48 hrs by sulforhodamine B assay relative to control
# Format: functional
# details: read-out: GI
Kindly supply the reported inhibition of growth at 10 µM values for the records listed here.
Expressed in %, but write only the number.

Task: Item under review: COc1ccc(-c2nc3sc(-c4ccc(Cl)cc4)cn3n2)cc1 . Reported inhibition of growth at 10 µM?
Result: 48.9

Task: What does the record list as inhibition of growth at 10 µM for COc1cc(-c2nc3sc(-c4ccccc4)cn3n2)cc(OC)c1OC ?
Result: 65

Task: Please look up its inhibition of growth at 10 µM: C/C(=N/O)c1ccc(NC(=O)Cn2nc(-c3ccccc3)nc2N)cc1
Result: 5.58

Task: Report inhibition of growth at 10 µM for COc1ccc(-c2nc3sc(-c4ccccc4)cn3n2)cc1 please.
Result: 58

Task: Looking for the measured inhibition of growth at 10 µM of CC(=O)c1ccc(NC(=O)Cn2nc(-c3ccc(Cl)cc3)nc2N)cc1 , can you help?
Result: 7.32

Task: Report inhibition of growth at 10 µM for c1ccc(-c2nc3sc(-c4ccccc4)cn3n2)cc1 please.
Result: 9

---

# Test system: OVCAR-4
# test-summary: Growth inhibition of human OVCAR4 cells at 10 uM incubated for 48 hrs by sulforhodamine B assay relative to control
# Type: functional
# details: OVCAR-4, 48 h, read-out: GI
Response key: t means inhibition of growth at 10 µM >= 40%; f means inhibition of growth at 10 µM < 40%.

Task: inhibition of growth at 10 µM >= 40% for c1ccc(-c2nc3sc(-c4ccccc4)cn3n2)cc1 ?
Result: f

Task: Could you verify whether the entry COc1ccc(-c2nc3sc(-c4ccccc4)cn3n2)cc1 shows inhibition of growth at 10 µM of no less than 40%?
Result: f

Task: Could you please find out whether COc1ccc(-c2nc3sc(-c4ccc(Cl)cc4)cn3n2)cc1 has inhibition of growth at 10 µM that meets 40% or exceeds it?
Result: f

Task: Please tell me: is the compound Clc1ccc(-c2cn3nc(-c4ccccc4)nc3s2)cc1 at or over 40% in terms of inhibition of growth at 10 µM?
Result: t

Task: Has COc1cc(-c2nc3sc(-c4ccccc4)cn3n2)cc(OC)c1OC a recorded inhibition of growth at 10 µM greater than or equal to 40%?
Result: f

---

# Tested on: HCT-116
# test-summary: Growth inhibition of human HCT116 cells at 10 uM incubated for 48 hrs by sulforhodamine B assay relative to control
# Format: functional
# details: HCT-116, 48 h, read-out: GI
Give measured inhibition of growth at 10 µM for each item. Keep answers brief.
Kindly answer with a numeric value in %, unit omitted.

Task: Requested read-out inhibition of growth at 10 µM, target or system HCT-116, entry COc1ccc(-c2nc3sc(-c4ccc(Cl)cc4)cn3n2)cc1
Result: -16

Task: Which measured inhibition of growth at 10 µM belongs to COc1cc(-c2nc3sc(-c4ccccc4)cn3n2)cc(OC)c1OC , tested on HCT-116?
Result: 40

Task: Param readout= inhibition of growth at 10 µM; system= HCT-116; entry= CC(=O)c1ccc(NC(=O)Cn2nc(-c3ccc(Cl)cc3)nc2N)cc1 ; returns value.
Result: 4.68

Task: Give HCT-116 inhibition of growth at 10 µM for Clc1ccc(-c2cn3nc(-c4ccccc4)nc3s2)cc1
Result: 41

Task: Give HCT-116 inhibition of growth at 10 µM for c1ccc(-c2nc3sc(-c4ccccc4)cn3n2)cc1
Result: 11

Task: Give inhibition of growth at 10 µM (HCT-116) of the following molecule: C/C(=N/O)c1ccc(NC(=O)Cn2nc(C(F)(F)F)nc2N)cc1
Result: 8.65

Task: API: value(readout= inhibition of growth at 10 µM, system= HCT-116, query= COc1ccc(-c2nc3sc(-c4ccccc4)cn3n2)cc1 )
Result: 60

---

# Test system: NCI-H322M
# test-summary: Growth inhibition of human NCI-H322M cells at 10 uM incubated for 48 hrs by sulforhodamine B assay relative to control
# Format: functional
# details: read-out: GI
assay-endpoint: inhibition of growth at 10 µM (%)
Give your result in % as a bare value.

Task: Any idea what its inhibition of growth at 10 µM is? The molecule is C/C(=N/O)c1ccc(NC(=O)Cn2nc(C(F)(F)F)nc2N)cc1
Result: 4.32

Task: // query inhibition of growth at 10 µM value for entry COc1cc(-c2nc3sc(-c4ccccc4)cn3n2)cc(OC)c1OC
Result: 7

Task: Give its inhibition of growth at 10 µM value. Item: C/C(=N\O)c1ccc(NC(=O)Cn2nc(-c3ccc(Cl)cc3)nc2N)cc1
Result: 7.09

---

# System: NCI-H322M
# test-summary: Growth inhibition of human NCI-H322M cells at 10 uM incubated for 48 hrs by sulforhodamine B assay relative to control
# Format: functional
# details: read-out: GI
Give inhibition of growth at 10 µM for every item shown.

Task: I would be grateful if you could share the reported inhibition of growth at 10 µM for Clc1ccc(-c2cn3nc(-c4ccccc4)nc3s2)cc1 .
Result: 20%

Task: Can you look up the measured inhibition of growth at 10 µM of COc1ccc(-c2nc3sc(-c4ccc(Cl)cc4)cn3n2)cc1 for me?
Result: 82.2%

Task: Dear colleague, I am looking for the recorded inhibition of growth at 10 µM of the following compound: COc1ccc(-c2nc3sc(-c4ccccc4)cn3n2)cc1
Result: 14%

Task: # query: inhibition of growth at 10 µM of entry c1ccc(-c2nc3sc(-c4ccccc4)cn3n2)cc1
Result: 11%

Task: Look up inhibition of growth at 10 µM for this compound: CC(=O)c1ccc(NC(=O)Cn2nc(-c3ccc(Cl)cc3)nc2N)cc1
Result: 5.69%

Task: Name the recorded inhibition of growth at 10 µM for COc1cc(-c2nc(N)n(CC(=O)Nc3ccc(/C(C)=N\O)cc3)n2)cc(OC)c1OC .
Result: 5.82%

Values from ChEMBL document CHEMBL4270577
